Biological target: Endothelial lipase (Homo sapiens)
Sequence (Q9Y5X9 whole entry): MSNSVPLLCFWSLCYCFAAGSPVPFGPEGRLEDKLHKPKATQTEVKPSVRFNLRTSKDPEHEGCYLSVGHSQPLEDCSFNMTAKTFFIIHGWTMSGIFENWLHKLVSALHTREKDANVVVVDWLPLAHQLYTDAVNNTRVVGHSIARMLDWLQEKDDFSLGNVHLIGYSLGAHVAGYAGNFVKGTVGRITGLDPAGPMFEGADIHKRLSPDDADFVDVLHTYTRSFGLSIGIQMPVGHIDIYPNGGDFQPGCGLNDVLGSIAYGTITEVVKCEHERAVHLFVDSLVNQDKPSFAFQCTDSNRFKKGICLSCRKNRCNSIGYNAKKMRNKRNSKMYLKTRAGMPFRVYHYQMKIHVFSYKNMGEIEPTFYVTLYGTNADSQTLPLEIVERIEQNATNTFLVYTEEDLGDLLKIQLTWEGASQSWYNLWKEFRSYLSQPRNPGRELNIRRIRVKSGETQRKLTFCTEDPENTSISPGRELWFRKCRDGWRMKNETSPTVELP
Assay: Inhibition of human endothelial lipase overexpressed in HUVEC cells using bis-BD-PC and mono-BD-TG as substrate incubated for 10 mins prior to substrate addition by micelle assay
Type: cell-based
# key: entry, value: log10(IC50)
Recorded IC50 (log10, µM)

Study these solved cases before continuing.
compound=CCCCCc1ccc(B2OC(C)(C)C(C)(C)O2)cc1 measured_attribute=log10(IC50) observed_result=0.04
compound=CCCCCCCCCCCc1ccc(B(O)O)cc1 measured_attribute=log10(IC50) observed_result=-0.70
compound="Cc1ccc(B(O)O)cc1 [TOLYL BORONIC ACID]" measured_attribute=log10(IC50) observed_result=1.34
compound=CCCCCCCCCc1cccc(B(O)O)c1 measured_attribute=log10(IC50) observed_result=0.70
compound=CCCCCCCCCc1ccc(B(O)O)cc1 measured_attribute=log10(IC50) observed_result=-1.00
compound=CCCCCc1cccc(B2OC(C)(C)C(C)(C)O2)c1 measured_attribute=log10(IC50) observed_result=1.54

In: Recorded log10(IC50) of "CCCc1ccc(B(O)O)cc1" , please.
Out: 0.60

----------
Target: Lipoprotein lipase (Homo sapiens, UniProt P06858)
Sequence (P06858 whole entry): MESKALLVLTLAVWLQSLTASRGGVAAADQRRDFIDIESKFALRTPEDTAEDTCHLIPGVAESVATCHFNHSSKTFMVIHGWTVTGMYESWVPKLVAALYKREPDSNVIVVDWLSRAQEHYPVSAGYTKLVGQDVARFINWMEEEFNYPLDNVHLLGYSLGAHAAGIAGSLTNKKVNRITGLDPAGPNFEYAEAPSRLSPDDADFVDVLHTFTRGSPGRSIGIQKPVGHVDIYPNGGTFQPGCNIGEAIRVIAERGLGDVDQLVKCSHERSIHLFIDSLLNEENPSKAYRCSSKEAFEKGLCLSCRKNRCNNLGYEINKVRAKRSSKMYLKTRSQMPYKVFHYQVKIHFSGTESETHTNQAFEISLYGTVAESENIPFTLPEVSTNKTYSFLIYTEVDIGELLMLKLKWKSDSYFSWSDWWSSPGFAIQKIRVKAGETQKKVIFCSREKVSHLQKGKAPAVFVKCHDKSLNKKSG
Experiment: Inhibition of human lipoprotein lipase expressed in HEK293 cells using bis-BD-PC and mono-BD-TG as substrate incubated for 10 mins prior to substrate addition by micelle assay
Threshold 30 µM. IC50 below it: 1.0. IC50 at it or above: 0.0.

Would you please look over these solved cases?
compound=CC1(C)OB(c2ccc(-c3cccs3)cc2)OC1(C)C system_tested="Lipoprotein lipase (Homo sapiens, UniProt P06858)" assigned_category=0.0
compound=CC1(C)OB(c2ccc(-c3ccco3)cc2)OC1(C)C system_tested="Lipoprotein lipase (Homo sapiens, UniProt P06858)" assigned_category=0.0
compound=CC1(C)OB(c2ccc(-c3ccoc3)cc2)OC1(C)C system_tested="Lipoprotein lipase (Homo sapiens, UniProt P06858)" assigned_category=0.0
compound=CC1(C)OB(c2ccc(-c3ccccc3)cc2)OC1(C)C system_tested="Lipoprotein lipase (Homo sapiens, UniProt P06858)" assigned_category=1.0
compound="Cc1ccc(B(O)O)cc1 [TOLYL BORONIC ACID]" system_tested="Lipoprotein lipase (Homo sapiens, UniProt P06858)" assigned_category=1.0

In: Say whether its IC50 is strictly beneath 30 µM. Entry: "CCCCCCCCCc1cccc(B(O)O)c1"
Out: 0.0

In: Say whether its IC50 is strictly beneath 30 µM. Entry: "CCCCCCCCCc1ccccc1B(O)O"
Out: 0.0

In: Say whether its IC50 is strictly beneath 30 µM. Entry: "CC1(C)OB(c2ccc(-c3ccc(F)cc3)cc2)OC1(C)C"
Out: 0.0

In: Say whether its IC50 is strictly beneath 30 µM. Entry: "CCCCCCCCCc1ccc(B(O)O)cc1"
Out: 1.0

In: Say whether its IC50 is strictly beneath 30 µM. Entry: "CCCCCc1cccc(B(O)O)c1"
Out: 0.0

In: Say whether its IC50 is strictly beneath 30 µM. Entry: "CCCCCCCCCCCc1ccc(B(O)O)cc1"
Out: 1.0

In: Say whether its IC50 is strictly beneath 30 µM. Entry: "CC1(C)OB(c2ccc(-c3ccsc3)cc2)OC1(C)C"
Out: 0.0

In: Say whether its IC50 is strictly beneath 30 µM. Entry: "CCCCCCCc1ccc(B2OC(C)(C)C(C)(C)O2)cc1"
Out: 1.0
